Measured Growth_2: number of cells at day 4 divided by number of cells at day 0, listed per entry.
system: A549-mRuby cells; assay: Drug screening: effect on cell growth (cell number day 4 / day 0); conditions: 10 μM drug, repeat #2
Structures can show the parent of a compound that is named as a salt.
Just the number, please, no unit after it.

Worked examples, 2 compounds total:
CC[C@H]1OC(=O)[C@H](C)[C@@H](O[C@H]2C[C@@](C)(OC)[C@@H](O)[C@H](C)O2)[C@H](C)[C@@H](O[C@@H]2O[C@H](C)C[C@H](N(C)C)[C@H]2O)[C@](C)(O)C[C@@H](C)/C(=N\OCOCCOC)[C@H](C)[C@@H](O)[C@]1(C)O [Roxithromycin] : 5.6
O=C(O[C@H]1CN2CCC1CC2)N1CCc2ccccc2[C@@H]1c1ccccc1 [Solifenacin] : 3.4

Next, consider the following compound.
Value lookup for Growth_2: number of cells at day 4 divided by number of cells at day 0; key = CNCCCN1c2ccccc2CCc2ccccc21 [Desipramine Hydrochloride]
3.9

----------
tested on: A549-mRuby cells; assay: Drug screening: effect on cell growth (cell number day 4 / day 0); conditions: 10 μM drug, repeat #2
QUANTITY MEASURED: Growth_2: number of cells at day 4 divided by number of cells at day 0
Just the number, please, no unit after it.

Value lookup for Growth_2: number of cells at day 4 divided by number of cells at day 0; key = CCCc1cc(=O)[nH]c(=S)[nH]1 [Propylthiouracil]
4.2

----------
Measured Growth_1: number of cells at day 4 divided by number of cells at day 0, listed per entry.
test system: A549-mRuby cells; assay: Drug screening: effect on cell growth (cell number day 4 / day 0); details: 10 μM drug, repeat #1
Structures can show the parent of a compound that is named as a salt.
Just the number, please, no unit after it.

Worked examples, 3 compounds total:
C=C[C@]1(C)C[C@@H](OC(=O)CSC(C)(C)CNC(=O)[C@H](N)C(C)C)[C@]2(C)[C@H](C)CC[C@]3(CCC(=O)[C@H]32)[C@@H](C)[C@@H]1O [Valnemulin HCl] : 4.4
COc1ccc2cc1Oc1ccc(cc1)C[C@H]1c3c(cc4c(c3Oc3cc5c(cc3OC)CCN(C)[C@@H]5C2)OCO4)CCN1C [Cepharanthine] : 4.3
CNCCC=C1c2ccccc2CCc2ccccc21.O [Nortriptyline hydrochloride] : 4.2

Value lookup for Growth_1: number of cells at day 4 divided by number of cells at day 0; key = CNCCCC12CCC(c3ccccc31)c1ccccc12 [Maprotiline HCl]
3.5

----------
Measured Growth_1: number of cells at day 4 divided by number of cells at day 0, listed per entry.
tested on: A549-mRuby cells; assay: Drug screening: effect on cell growth (cell number day 4 / day 0); conditions: 10 μM drug, repeat #1
Counter-ions that a name gives are not always drawn.

Worked examples, 2 compounds total:
CN(C)CCCOc1nn(Cc2ccccc2)c2ccccc12 [Benzydamine HCl] : 4.9
CN1CCCC(n2nc(Cc3ccc(Cl)cc3)c3ccccc3c2=O)CC1.O (stereo not drawn) [Azelastine HCl] : 4.1

Value lookup for Growth_1: number of cells at day 4 divided by number of cells at day 0; key = CCN(CCO)CCCC(C)Nc1ccnc2cc(Cl)ccc12 (stereo not drawn) [Hydroxychloroquine Sulfate]
5.1

----------
test system: A549-mRuby cells; test: Drug screening: effect on cell growth (cell number day 4 / day 0); conditions: 10 μM drug, repeat #2
Counter-ions that a name gives are not always drawn.
Please assign a class to every record based on measured Growth_2: number of cells at day 4 divided by number of cells at day 0, with ranges 0: < 4; 1: ≥ 4 and < 5; 2: ≥ 5

Hi there! Could you help me figure out the category for CNCCCC12CCC(c3ccccc31)c1ccccc12 [Maprotiline HCl] please?
0

Hi there! Could you help me figure out the category for CCN(CC)CCOCCOC(=O)C1(c2ccccc2)CCCC1.O=C(O)CC(O)(CC(=O)O)C(=O)O [Pentoxyverine Citrate] please?
2

Hi there! Could you help me figure out the category for C=C[C@]1(C)C[C@@H](OC(=O)CSC(C)(C)CNC(=O)[C@H](N)C(C)C)[C@]2(C)[C@H](C)CC[C@]3(CCC(=O)[C@H]32)[C@@H](C)[C@@H]1O [Valnemulin HCl] please?
1

Hi there! Could you help me figure out the category for CN(C)CCCOc1nn(Cc2ccccc2)c2ccccc12 [Benzydamine HCl] please?
1

Hi there! Could you help me figure out the category for `CCCCOc1cc(C(=O)NCCN(CC)CC)c2ccccc2n1` please?
1

Hi there! Could you help me figure out the category for Cl.Cl.OCCN1CCN(CCC=C2c3ccccc3Sc3ccc(C(F)(F)F)cc32)CC1 (mixture of isomers) [Flupenthixol dihydrochloride] please?
0

Hi there! Could you help me figure out the category for `CO[C@H]1/C=C/O[C@@]2(C)Oc3c(C)c(O)c4c(c3C2=O)C2=NC3(CCN(CC(C)C)CC3)NC2=C(NC(=O)/C(C)=C\C=C\[C@H](C)[C@H](O)[C@@H](C)[C@@H](O)[C@@H](C)[C@H](OC(C)=O)[C@@H]1C)C4=O` please?
2

Hi there! Could you help me figure out the category for `Clc1ccc2c(c1)CCc1cccnc1C2=C1CCNCC1` please?
1

Hi there! Could you help me figure out the category for `C[C@@H]1[C@H](O)[C@@H](C)/C=C/C=C/C=C/C=C/C=C/C=C/C=C/[C@H](O[C@@H]2O[C@H](C)[C@@H](O)[C@H](N)[C@@H]2O)C[C@@H]2O[C@](O)(C[C@@H](O)C[C@@H](O)[C@H](O)CC[C@@H](O)C[C@@H](O)CC(=O)O[C@H]1C)C[C@H](O)[C@H]2C(=O)O` please?
2

Hi there! Could you help me figure out the category for CN1CCC(COc2cnc(-c3cccc(Cn4nc(-c5cccc(C#N)c5)ccc4=O)c3)nc2)CC1 [Tepotinib (EMD 1214063), Tepotinib] please?
2

Hi there! Could you help me figure out the category for Cc1nc2c([nH]1)CCN(C(=O)c1ccc(NC(=O)c3ccccc3-c3ccccc3)cc1)c1ccccc1-2.O [Conivaptan HCl] please?
1

Hi there! Could you help me figure out the category for CN1[C@@H]2CC[C@H]1C[C@@H](OC(=O)c1c[nH]c3ccccc13)C2 [Tropisetron HCl] please?
2

Hi there! Could you help me figure out the category for CNCCC=C1c2ccccc2CCc2ccccc21.O [Nortriptyline hydrochloride] please?
0

----------
tested on: A549-mRuby cells; experiment: Drug screening: effect on cell growth (cell number day 4 / day 0); conditions: 10 μM drug, repeat #1
Counter-ions that a name gives are not always drawn.
QUANTITY MEASURED: Growth_1: number of cells at day 4 divided by number of cells at day 0
Just the number, please, no unit after it.

CC(C)c1nc(CN(C)C(=O)N[C@@H](CCN2CCOCC2)C(=O)N[C@H](CC[C@H](Cc2ccccc2)NC(=O)OCc2cncs2)Cc2ccccc2)cs1 [Cobicistat (GS-9350), Cobicistat] : 4.9
CC(N)C12CC3CC(CC(C3)C1)C2 (stereo not shown) [Rimantadine Hydrochloride] : 4.4

Value lookup for Growth_1: number of cells at day 4 divided by number of cells at day 0; key = `CN(C)N(C)C(=O)[C@@]1(Cc2ccccc2)CCCN(C(=O)[C@@H](Cc2c[nH]c3ccccc23)NC(=O)C(C)(C)N)C1`
5.2

Value lookup for Growth_1: number of cells at day 4 divided by number of cells at day 0; key = CC[C@H]1OC(=O)[C@H](C)[C@@H](O[C@H]2C[C@@](C)(OC)[C@@H](O)[C@H](C)O2)[C@H](C)[C@@H](O[C@@H]2O[C@H](C)C[C@H](N(C)C)[C@H]2O)[C@](C)(O)C[C@@H](C)C(=O)[C@H](C)[C@@H](O)[C@]1(C)O.N#CS [Erythromycin thiocyanate]
4.1

Value lookup for Growth_1: number of cells at day 4 divided by number of cells at day 0; key = `CN1CCN(C2=Nc3cc(Cl)ccc3Nc3ccccc32)CC1`
4.6

Value lookup for Growth_1: number of cells at day 4 divided by number of cells at day 0; key = `CCCc1cc(=O)[nH]c(=S)[nH]1`
3.7

Value lookup for Growth_1: number of cells at day 4 divided by number of cells at day 0; key = `CN[C@H]1C(=O)N[C@@H]2Cc3ccc(cc3)Oc3cc4cc(c3O[C@@H]3O[C@H](C(=O)O)[C@@H](O)[C@H](O)[C@H]3NC(=O)CCCCCCCCC(C)C)Oc3ccc(cc3Cl)[C@@H](O)[C@@H]3NC(=O)[C@H](NC(=O)[C@@H]4NC(=O)[C@@H](NC2=O)c2cc(cc(O)c2Cl)Oc2cc1ccc2O)c1ccc(O)c(c1)-c1c(O[C@H]2O[C@H](CO)[C@@H](O)[C@H](O)[C@@H]2O)cc(O)cc1[C@@H](C(=O)NCCCN(C)C)NC3=O`
5.8

Value lookup for Growth_1: number of cells at day 4 divided by number of cells at day 0; key = CN(C)CCCC1(c2ccc(F)cc2)OCc2cc(C#N)ccc21 (stereo not shown)
5.1

Value lookup for Growth_1: number of cells at day 4 divided by number of cells at day 0; key = `COC(=O)N[C@H](C(=O)N1CCC[C@H]1c1ncc(-c2ccc3c(c2)O[C@@H](c2ccccc2)n2c-3cc3cc(-c4cnc([C@@H]5CCCN5C(=O)[C@@H](NC(=O)OC)C(C)C)[nH]4)ccc32)[nH]1)C(C)C`
4.7

Value lookup for Growth_1: number of cells at day 4 divided by number of cells at day 0; key = CN(C)CCCN1c2ccccc2CCc2ccccc21.O [Imipramine HCl]
4.0
